- Assay Notes: Antitumor activity against human KB3 cells after 96 hrs by MTT assay
- Format: functional, cell-based
- Condition Description: KB3, 96 h
pIC50: −log10 of the molar value.
If the reported pIC50 equals or exceeds 5, assign y. If not, assign n.

>  <Smiles Record>
C=C(C)[C@H]1CC=C(C)[C@@]2(O)[C@@H]1[C@H](c1ccccn1)O[C@@H]2C(=O)OC

>  <Category>
n

$$$$
>  <Smiles Record>
C=C(C)[C@H]1CC=C(C)[C@@]2(O)[C@@H]1[C@H](c1ccc(Cl)cc1Cl)O[C@@H]2C(=O)OCC

>  <Category>
y

$$$$
>  <Smiles Record>
C=C(C)[C@H]1CC=C(C)[C@@]2(O)[C@@H]1[C@H](c1ccccc1Br)O[C@@H]2C(=O)OC

>  <Category>
y

$$$$
>  <Smiles Record>
C=C(C)[C@H]1CC=C(C)[C@@]2(O)[C@@H]1[C@H](c1cccc(Cl)c1Cl)O[C@@H]2C(=O)OCC

>  <Category>
y

$$$$
>  <Smiles Record>
C=C(C)[C@H]1CC(=O)C(C)=C2[C@@H](C(=O)OCC)O[C@@H](c3ccc(Cl)cc3Cl)[C@@H]21

>  <Category>
y

$$$$

Inquiry: Has C=C(C)[C@H]1CC(=O)C(C)=C2[C@@H](C(=O)OCC)O[C@@H](c3ccccc3Br)[C@@H]21 a recorded pIC50 greater than or equal to 5?
Reply text: n

Inquiry: Similarly, C=C(C)[C@H]1CC(=O)C(C)=C2[C@@H](C(=O)OCC)O[C@@H](c3cccc(Br)c3)[C@@H]21 ?
Reply text: n

Attribution: ChEMBL document CHEMBL1153726
